# experiment: NCI Yeast Anticancer Drug Screen. Data for the wt1 strain (AID 149)
# measurement conditions: S. cerevisiae wt1 strain (SPY 50644) growth inhibition; at 100.0 µM
Compounds without any hit were thinned out: in the full panel of roughly 79,000, 15% have a hit. Active and inactive are the calls of the source. Cut-off read from the data, not from the text of the source: active = growth inhibition above about 70%; inactive = the rest.
Give your call using only these classes: active, inactive

{"compound": "S=c1[nH]nc(-c2ccc(Cl)cc2)s1", "class assignment": "active"}

**Query** Hi team, can someone confirm the assay call for `O=C1c2ccccc2CCC1(Br)Br` ?
**Result** active

**Query** GET /call?item= Cc1cc(O)c2c(c1O)C(=O)C13C(=C2O)C(=O)C2C(O)C1C1C(O)C3C(=O)C3=C(O)c4c(O)cc(C)c(O)c4C(=O)C321 (stereo unspecified) returns the recorded outcome of this test.
**Result** active

**Query** Outcome logged for CN(C)CC1CCCc2ccccc2C1=O (stereo unspecified) in this assay:
**Result** inactive
